Reference source: the RNAGym collection of RNA variant scans (doi:10.1073/pnas.2313332121)

B1: TPR 5TU (parent)
chain: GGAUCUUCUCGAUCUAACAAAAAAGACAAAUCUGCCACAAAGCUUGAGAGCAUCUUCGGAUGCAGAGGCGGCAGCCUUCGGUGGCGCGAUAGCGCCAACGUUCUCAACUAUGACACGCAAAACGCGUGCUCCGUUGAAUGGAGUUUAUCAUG

variants of: B1; assay: polymerase ribozyme fitness, log enrichment relative to wild type (log ratio); higher = more active; in vitro selection for triplet polymerase activity
Fewer inactive variants are shown than the library holds.
Label class 0 if polymerase ribozyme fitness (log ratio) falls below -3; label class 1 in every other case.

# example entries with known answers
U33G C85G G117C : class 0
C36A C79U : class 0
G88C C114U G141U : class 0

Moving on to the next variant.
Entry G42U U44G A60G G71A G86A A106U U134G U135C : is its polymerase ribozyme fitness (log ratio) no less than -3?
class 0
